# TEST TARGET: E. coli DNA gyrase GyrB (F513L) (Escherichia coli, UniProt P0AES6, F513L)
# Construct: His6 tag followed by TEV site (X1: […]) (N, cleaved yes); made in house; host or cells: E. coli BL21(DE3) RIL
# ASSAY PROTOCOL: Gel supercoiling assay, reconstituted GyrB (F513L) gyrase
# Format: biochemical
pIC50: −log10 of the molar value.
VALUE TYPE: pIC50

Inquiry: Which pIC50 value is on record for Cn1ncc2cc(-c3nnnn3C3CCN(C(=O)Nc4ccc(Cl)c(Cl)c4)CC3)ccc21 ?
Reply text: < 3.70

* * *

# System: E. coli GYR106 GyrB F513L/A468V
# ASSAY PROTOCOL: microbe, parasite or virus in culture
# Type: cell-based
# STATED CONDITIONS: Escherichia coli
VALUE TYPE: MIC

Please review the entries below; each comes with its answer.
> print(dat)
                                   compound                      test.target  value.type        result
1  C[C@H]1COc2c(N3CCN(C)CC3)c(F)cc3c(=O)c(C(=O)O)cn1c23 [levofloxacin]  E. coli GYR106 GyrB F513L/A468V         MIC  0.0078 µg/mL
2  Cn1ncc2cc(-c3cnnn3C3CCN(C(=O)Nc4cc(Cl)cc(Cl)c4)CC3)ccc21 [MRL-423]  E. coli GYR106 GyrB F513L/A468V         MIC    > 64 µg/mL
3  Cn1ncc2cc(-c3nnnn3C3CCN(C(=O)Nc4ccc(Cl)c(Cl)c4)CC3)ccc21 [MRL-1082]  E. coli GYR106 GyrB F513L/A468V         MIC    > 64 µg/mL
4  COc1cc(Cc2cnc(N)nc2N)cc(OC)c1OC [Trimeth-oprim]  E. coli GYR106 GyrB F513L/A468V         MIC  0.0625 µg/mL
5  COc1ccc(C)cc1NC(=O)N1CCC(n2nncc2-c2ccc3c(cnn3C)c2)CC1 [MRL-770]  E. coli GYR106 GyrB F513L/A468V         MIC    > 64 µg/mL
6  CN(C)[C@@H]1C(O)=C(C(N)=O)C(=O)[C@@]2(O)C(O)=C3C(=O)c4c(O)cccc4[C@@](C)(O)[C@H]3C[C@@H]12 [tetracycline]  E. coli GYR106 GyrB F513L/A468V         MIC     0.5 µg/mL

Shift focus to the following entry.
Inquiry: Which MIC value is on record for CO[C@@H]1[C@@H](OC(N)=O)[C@@H](O)[C@H](Oc2ccc3c(O)c(NC(=O)c4ccc(O)c(CC=C(C)C)c4)c(=O)oc3c2C)OC1(C)C [novobiocin] ?
Reply text: 2 µg/mL
